Overview of recorded pKd for various binders
# experimental_target: feline FcRn complex (FcRn-α subunit and β-microglobulin), biotin labeled (feline)
# assay_remarks: SPR, pH 6
Note: pKd values are expressed as the negative base-10 logarithm of concentration in M.

binder	measured_property	experimental_result
feline IgG1a S252H/S428M/S434F (antibody, part only; not given: Variable domains, not shown: another chain or arm of the molecule) constant: ASTTAPSVFPLAPSCGTTSGATVALACLVLGYFPEPVTVSWNSGALTSGVHTFPAVLQASGLYSLSSMVTVPSSRWLSDTFTCNVAHPPSNTKVDKTVRKTDHPPGPKPCDCPKCPPPEMLGGPSIFIFPPKPKDTLHISRTPEVTCLVVDLGPDDSDVQITWFVDNTQVYTAKTSPREEQFNSTYRVVSVLPILHQDWLKGKEFKCKVNSKSLPSPIERTISKAKGQPHEPQVYVLPPAQEELSRNKVSVTCLIKSFHPPDIAVEWEITGQPEPENNYRTTPPQLDSDGTYFVYSKLSVDRSHWQRGNTYTCSVMHEALHFHHTQKSLTQSPGK	pKd	9.92

Please turn your attention to the following entry.
Which value of pKd has been reported for feline IgG1a D312H (antibody, part only; not given: Variable domains, not shown: another chain or arm of the molecule; small tags and cut ends) constant: ASTTAPSVFPLAPSCGTTSGATVALACLVLGYFPEPVTVSWNSGALTSGVHTFPAVLQASGLYSLSSMVTVPSSRWLSDTFTCNVAHPPSNTKVDKTVRKTDHPPGPKPCDCPKCPPPEMLGGPSIFIFPPKPKDTLSISRTPEVTCLVVDLGPDDSDVQITWFVDNTQVYTAKTSPREEQFNSTYRVVSVLPILHQHWLKGKEFKCKVNSKSLPSPIERTISKAKGQPHEPQVYVLPPAQEELSRNKVSVTCLIKSFHPPDIAVEWEITGQPEPENNYRTTPPQLDSDGTYFVYSKLSVDRSHWQRGNTYTCSVSHEALHSHHTQKSLTQSPGK in the records?
8.13
